All figures here come from patent US6143715A.

- tgt: HCV NS3 protease type 1b/NS4A cofactor peptide (Hepatitis C virus genotype 1b)
- Construct: recombinant HCV NS3 protease (amino acid 1027 to 1206) was cloned; made in house; host or cells: E. coli BL21(DE3)pLysS
- Sequence (P26663 1027-1206, other chains not shown): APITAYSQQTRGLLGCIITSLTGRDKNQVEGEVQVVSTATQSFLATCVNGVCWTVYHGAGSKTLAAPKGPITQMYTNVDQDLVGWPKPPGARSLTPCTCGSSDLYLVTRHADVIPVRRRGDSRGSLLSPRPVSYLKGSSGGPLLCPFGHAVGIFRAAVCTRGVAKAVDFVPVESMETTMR
- assay-overview: biochemical
- Design: species or system hepatitis C virus (HCV) genotype 1b
Starred links: 1 amine or outer side, 2 acyl side, 3 side chain; linkers in the order of their positions; H or OH if unused. Non-standard residues stand in square brackets, D forms with d. Residues, ends and D or L forms follow the SMILES beside them. *: point of attachment. NH(1S-phenylethyl) = C[C@H](N*)c1ccccc1; Hyp = O=C(O)[C@@H]1C[C@@H](O)CN1; NHPiperonyl = c1cc2c(cc1CN*)OCO2; azaNva = CCCN(N[*:1])C(=O)[*:2]; X7 = CCCCCN(N[*:1])C(=O)[*:2]; X5 = CCCN(N*)C(=O)CCc1ccccc1; X12 = C[C@H](N*)c1nnn[nH]1; Nva = CCC[C@H](N)C(=O)O; Bn = c1ccc(C*)cc1
parameter-measured: pIC50
A value of pIC50 is the negative decimal logarithm of a concentration given in moles per litre.

Query string: Which pIC50 value belongs to CCCN(NC(=O)[C@@H]1C[C@@H](OCc2ccccc2)CN1C(=O)[C@@H](NC(=O)[C@@H](NC(=O)[C@@H](CCC(=O)O)NC(=O)[C@H](CC(=O)O)NC(C)=O)[C@@H](C)CC)C(C)C)C(=O)NCc1ccc2c(c1)OCO2 [Compound 231] (Ac-D[dE]IV[Hyp](Bn)[azaNva]-NHPiperonyl) ?
Result string: 6.30

Query string: Quick one: CCCN(NC(=O)[C@@H]1C[C@@H](OCc2ccccc2)CN1C(=O)[C@@H](NC(=O)[C@@H](NC(=O)[C@@H](CCC(=O)O)NC(=O)[C@H](CC(=O)O)NC(C)=O)[C@@H](C)CC)C(C)C)C(=O)N[C@@H](C)c1nnn[nH]1 [Compound 233] (Ac-D[dE]IV[Hyp](Bn)[azaNva]-X12)
Result string: 5.82

Query string: Entry CCCN(NC(=O)[C@@H]1C[C@@H](OCc2ccccc2)CN1C(=O)[C@@H](NC(=O)[C@@H](NC(=O)[C@@H](CCC(=O)O)NC(=O)[C@H](CC(=O)O)NC(C)=O)[C@@H](C)CC)C(C)C)C(=O)CCc1ccccc1 [Compound 202] (Ac-D[dE]IV[Hyp](Bn)-X5) please
Result string: 6.20

Query string: Lookup CCCCCN(NC(=O)[C@@H]1C[C@@H](OCc2ccccc2)CN1C(=O)[C@@H](NC(=O)[C@@H](NC(=O)[C@@H](CCC(=O)O)NC(=O)[C@H](CC(=O)O)NC(C)=O)[C@@H](C)CC)C(C)C)C(=O)N[C@@H](C)c1ccccc1 [Compound 219] (Ac-D[dE]IV[Hyp](Bn)[X7]-{NH(1S-phenylethyl)})
Result string: 6.37

Query string: What about CCC[C@H](NC(=O)[C@@H]1C[C@@H](OCc2ccccc2)CN1C(=O)[C@@H](NC(=O)[C@@H](NC(=O)[C@@H](CCC(=O)O)NC(=O)[C@H](CC(=O)O)NC(C)=O)[C@@H](C)CC)C(C)C)C(=O)N[C@@H](C)c1ccccc1 [Compound 108] (Ac-D[dE]IV[Hyp](Bn)[Nva]-{NH(1S-phenylethyl)}) ?
Result string: 6.15
